# targetOfAssay: oestrogen receptor (ER) (Homo sapiens)
# Construct: These MVLN cells express, along with the functional oestrogen receptor (ER), a reporter construct; endogenous in cells
# assayMethodText: Anti-oestrogenic action in MVLN cells (inhibition of estradiol-induced luciferase)
# particulars: inhibition of estradiol-induced luciferase signal, value of Ex. 44 is a mean value, read-out: Antioestrogenic action in vitro: MVLN transactivation antagonism IC50
pIC50: −log10 of the molar value.
resultType: pIC50

>>> numericreadout("CN(CCCCCCC1=C(c2ccc(F)c(F)c2)CCCc2cc(O)ccc21)CCC[S+]([O-])CCC(F)(F)F (stereo not shown)")
7.32
>>> numericreadout("CC(C)(O)CN(CCCCCCC1=C(c2ccc(F)c(F)c2)CCCc2cc(O)ccc21)CCCS(=O)(=O)CCC(F)(F)F")
7.46
>>> numericreadout("CN(CCCCCCC1=C(c2ccc(F)cc2F)CCCc2cc(O)ccc21)CCCS(=O)(=O)CCCC(F)(F)C(F)(F)F")
8.22
>>> numericreadout("CN(CCCCCCC1=C(c2cc(F)cc(F)c2)CCCc2cc(O)ccc21)CCCS(=O)(=O)CCC(F)(F)C(F)(F)F")
6.74
>>> numericreadout("O=S(=O)(CCCCN(CCO)CCCCCCC1=C(c2ccc(F)cc2)CCCc2cc(O)ccc21)CCC(F)(C(F)(F)F)C(F)(F)F")
7.59
>>> numericreadout("CN(CCCCCCC1=C(c2ccc(F)c(F)c2)CCCc2cc(O)ccc21)CCCS(=O)(=O)CCC(F)(F)F")
6.65
>>> numericreadout("O=C(O)CCCN(CCCCCCC1=C(c2ccc(F)cc2)CCCc2cc(O)ccc21)CCCCS(=O)(=O)CCCC(F)(F)F")
7.68
>>> numericreadout("CN(CCCCCCC1=C(c2cc(F)cc(F)c2)CCCc2cc(O)ccc21)CCCCS(=O)(=O)CCC(F)(F)C(F)(F)F")
7.72
>>> numericreadout("O=S(=O)(CCCN(CCCO)CCCCCCC1=C(c2ccc(F)cc2)CCCc2c1ccc(O)c2F)CCC(F)(F)F")
7.08
>>> numericreadout("CN(CCCCCCC1=C(c2ccc(F)cc2F)CCCc2cc(O)ccc21)CCCS(=O)(=O)CCCCCC(F)(F)F")
8.30
>>> numericreadout("CN(CCCCCC1=C(c2ccc(F)cc2)CCCc2cc(O)ccc21)CCCS(=O)(=O)CCCC(F)(F)C(F)(F)F")
7.16
>>> numericreadout("O=C(O)CN(CCCCCCC1=C(c2ccc(F)cc2)CCCc2cc(O)ccc21)CCCCS(=O)(=O)CCCC(F)(F)F")
7.68
>>> numericreadout("CN(CCCCCCC1=C(c2cc(F)cc(F)c2)CCCc2cc(O)ccc21)CCC[S+]([O-])CCCC(F)(F)C(F)(F)F (stereo not shown)")
7.92
>>> numericreadout("CN(CCCCCCC1=C(c2ccc(F)cc2)CCCc2c1ccc(O)c2F)CCCCS(=O)(=O)CCCC(F)(F)C(F)(F)F [Example 43]")
7.70
>>> numericreadout("CN(CCCCCCC1=C(c2cc(F)cc(F)c2)CCCc2cc(O)ccc21)CCCS(=O)(=O)CCCC(F)(F)F")
7.62
>>> numericreadout("CN(CCCCCCC1=C(c2ccc(F)c(F)c2)CCCc2cc(O)ccc21)CCCCS(=O)(=O)CCCC(F)(F)C(F)(F)F")
7.55
>>> numericreadout("CN(CCCCCCC1=C(c2ccc(F)cc2F)CCCc2cc(O)ccc21)CCCS(=O)(=O)CCC(F)(F)F")
7.80
>>> numericreadout("CN(CCCCCCC1=C(c2ccc(F)cc2)CCCc2cc(O)ccc21)CCCS(=O)(=O)CCC(F)(F)C(F)(F)F")
7.47
>>> numericreadout("CC(C)(O)CN(CCCCCCC1=C(c2cc(F)cc(F)c2)CCCc2cc(O)ccc21)CCCS(=O)(=O)CCC(F)(F)F")
7.08
>>> numericreadout("O=S(=O)(CCCCNCCCCCCC1=C(c2cc(F)cc(F)c2)CCCc2cc(O)ccc21)CCCC(F)(F)F")
7.70
>>> numericreadout("CN(CCCCCCC1=C(c2ccc(F)cc2)CCCc2cc(O)c(F)cc21)CCCCCS(=O)(=O)CCC(F)(F)F")
6.91
>>> numericreadout("[2H]C([2H])([2H])N(CCCCCCC1=C(c2cc(F)ccc2F)CCCc2cc(O)ccc21)CCCS(=O)(=O)CCCCC(F)(F)F")
8.22
>>> numericreadout("C[C@@H](O)CN(CCCCCCC1=C(c2ccc(F)cc2)CCCc2cc(O)ccc21)CCCCS(=O)(=O)CCCC(F)(F)F")
8.22
>>> numericreadout("COC(=O)CCN(CCCCCCC1=C(c2ccc(F)cc2)CCCc2cc(O)ccc21)CCCCS(=O)(=O)CCCC(F)(F)F")
7.89
>>> numericreadout("O=S(=O)(CCCN(CCCO)CCCCCCC1=C(c2ccc(F)cc2)CCCc2cc(O)ccc21)CCC(F)(F)F")
6.95
>>> numericreadout("CN(CCCCCCC1=C(c2ccc(F)cc2)CCCc2c1ccc(O)c2F)CCCS(=O)(=O)CCCC(F)(F)F [Example 149]")
7.85
>>> numericreadout("CN(CCCCCCC1=C(c2ccc(F)c(F)c2)CCCc2cc(O)ccc21)CCC[S+]([O-])CCC(F)(F)C(F)(F)F (stereo not shown)")
7.47
>>> numericreadout("O=S(=O)(CCCN(CCCCCCC1=C(c2ccc(F)cc2)CCCc2cc(O)ccc21)Cc1ccc(F)cc1)CCCC(F)(F)C(F)(F)F")
6.74

* * *

# targetOfAssay: oestrogen receptor (ER) (Homo sapiens, UniProt P03372)
# Construct: These MVLN cells express, along with the functional oestrogen receptor (ER), a reporter construct; endogenous in cells
# assayMethodText: Anti-oestrogenic action in MVLN cells (inhibition of estradiol-induced luciferase)
# particulars: inhibition of estradiol-induced luciferase signal, value of Ex. 44 is a mean value, read-out: Antioestrogenic action in vitro: MVLN transactivation antagonism IC50
resultType: IC50

>>> result("CN(CCCCCCC1=C(c2ccc(F)cc2F)CCCc2cc(O)ccc21)CCCCS(=O)(=O)CCC(F)(F)F [Example 131]")
"0.003 µM"
>>> result("CC(C)(O)CN(CCCCCCC1=C(c2ccc(F)c(F)c2)CCCc2cc(O)ccc21)CCCS(=O)(=O)CCCC(F)(F)C(F)(F)F [Example 29]")
"0.01 µM"
>>> result("COCCCN(CCCCCCC1=C(c2ccc(F)c(F)c2)CCCc2cc(O)ccc21)CCCS(=O)(=O)CCCC(F)(F)C(F)(F)F [Example 32]")
"0.033 µM"
>>> result("O=S(=O)(CCCCC(F)(F)F)CCCNCCCCCCC1=C(c2ccc(F)cc2)CCCc2cc(O)ccc21 [Example 112]")
"0.007 µM"
>>> result("CN(CCCCCCC1=C(c2ccc(F)cc2)CCCc2cc(O)c(F)cc21)CCCCS(=O)(=O)CCCC(F)(F)C(F)(F)F [Example 105]")
"0.012 µM"
>>> result("CN(CCCCCCC1=C(c2cccc(F)c2)CCCc2cc(O)ccc21)CCCS(=O)(=O)CCCC(F)(F)C(F)(F)F [Example 125]")
"0.013 µM"
>>> result("CN(CCCCCCC1=C(c2ccc(F)cc2)CCCc2c1ccc(O)c2F)CCCS(=O)(=O)CCCCC(F)(F)F [Example 87]")
"0.01 µM"

* * *

# targetOfAssay: oestrogen receptor (ER) (Homo sapiens)
# Construct: These MVLN cells express, along with the functional oestrogen receptor (ER), a reporter construct; endogenous in cells
# Sequence (P03372 1-595): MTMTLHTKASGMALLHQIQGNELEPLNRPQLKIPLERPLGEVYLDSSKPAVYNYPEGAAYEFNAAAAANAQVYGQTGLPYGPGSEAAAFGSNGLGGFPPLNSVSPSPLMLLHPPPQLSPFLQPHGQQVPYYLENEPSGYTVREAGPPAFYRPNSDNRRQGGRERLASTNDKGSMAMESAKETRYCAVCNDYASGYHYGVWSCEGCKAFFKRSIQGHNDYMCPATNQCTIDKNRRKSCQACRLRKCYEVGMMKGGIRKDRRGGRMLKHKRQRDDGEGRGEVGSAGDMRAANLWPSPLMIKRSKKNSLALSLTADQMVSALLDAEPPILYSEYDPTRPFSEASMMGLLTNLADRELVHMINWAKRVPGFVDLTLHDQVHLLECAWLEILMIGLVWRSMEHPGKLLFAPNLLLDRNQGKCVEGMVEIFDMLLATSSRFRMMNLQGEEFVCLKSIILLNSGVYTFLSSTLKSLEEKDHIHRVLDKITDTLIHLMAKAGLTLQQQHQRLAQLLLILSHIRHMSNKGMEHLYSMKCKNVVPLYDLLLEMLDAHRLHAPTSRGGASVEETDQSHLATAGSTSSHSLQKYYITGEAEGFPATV
# assayMethodText: Anti-oestrogenic action in MVLN cells (inhibition of estradiol-induced luciferase)
# particulars: inhibition of estradiol-induced luciferase signal, value of Ex. 44 is a mean value, read-out: Antioestrogenic action in vitro: MVLN transactivation antagonism IC50
pIC50: −log10 of the molar value.
resultType: pIC50

>>> numericreadout("CC(=O)N(CCCCCCC1=C(c2ccc(F)cc2)CCCc2cc(O)ccc21)CCCCS(=O)(=O)CCCC(F)(F)F")
7.27
>>> numericreadout("CN(CCCCCCC1=C(c2ccc(F)cc2)CCCc2cc(O)c(F)cc21)CCCCS(=O)(=O)C1CCC(F)(F)CC1")
8.00
>>> numericreadout("N#CCN(CCCCCCC1=C(c2ccc(F)cc2)CCCc2cc(O)ccc21)CCCCS(=O)(=O)CCCC(F)(F)F")
7.85
>>> numericreadout("O=S(=O)(CCCN(CCCO)CCCCCCC1=C(c2ccc(F)cc2)CCCc2cc(O)ccc21)CCCC(F)(F)C(F)(F)F")
7.66
